Each entry below lists one item and its recorded R0 value.
- system tested: T1, native human ApoC3 (human, UniProt P02656 21-99, biotinylated in the captured-antigen assays (Tables 6 and 8); sites not stated)
- T1 construct: also called nhuApoC3; native huApoC3
- T1 sequence (P02656 21-99): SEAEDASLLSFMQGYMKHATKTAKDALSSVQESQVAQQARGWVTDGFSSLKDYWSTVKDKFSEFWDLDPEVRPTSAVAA
- measurement notes: SPR, biotinylated antigen captured on SA chip, scFv periplasmic extract injected, pH 7.4
Answer with a number only, understood to be in RU.

29G11 scFv (scFv, part only; not given: scFv linker, domain order, c-myc tag, V domains shown, not shown: another chain or arm of the molecule; small tags and cut ends) VH: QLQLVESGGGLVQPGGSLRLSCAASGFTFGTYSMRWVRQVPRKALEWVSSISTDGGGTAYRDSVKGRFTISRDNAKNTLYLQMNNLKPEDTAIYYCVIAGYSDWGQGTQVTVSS VL: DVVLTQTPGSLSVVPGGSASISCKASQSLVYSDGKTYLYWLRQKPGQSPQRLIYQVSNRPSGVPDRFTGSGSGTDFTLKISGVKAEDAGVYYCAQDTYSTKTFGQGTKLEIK ... 809
5E5 WT scFv (scFv, part only; not given: scFv linker, domain order, c-myc tag, V domains shown, not shown: another chain or arm of the molecule; small tags and cut ends) VH: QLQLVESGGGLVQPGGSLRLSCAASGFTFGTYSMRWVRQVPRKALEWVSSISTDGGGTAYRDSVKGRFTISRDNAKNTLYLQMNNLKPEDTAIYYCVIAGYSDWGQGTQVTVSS VL: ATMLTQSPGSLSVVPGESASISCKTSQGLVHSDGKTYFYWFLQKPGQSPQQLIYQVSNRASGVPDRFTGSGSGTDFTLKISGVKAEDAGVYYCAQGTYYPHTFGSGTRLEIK ... 854
29A05 scFv (scFv, part only; not given: scFv linker, domain order, c-myc tag, V domains shown, not shown: another chain or arm of the molecule; small tags and cut ends) VH: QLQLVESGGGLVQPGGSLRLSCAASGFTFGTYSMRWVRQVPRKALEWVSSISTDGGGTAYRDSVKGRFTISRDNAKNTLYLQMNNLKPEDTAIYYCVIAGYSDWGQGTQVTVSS VL: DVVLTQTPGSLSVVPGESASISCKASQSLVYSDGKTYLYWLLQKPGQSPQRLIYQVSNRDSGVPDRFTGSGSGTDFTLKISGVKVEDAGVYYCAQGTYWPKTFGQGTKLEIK ... 545
30D10 scFv (scFv, part only; not given: scFv linker, domain order, c-myc tag, V domains shown, not shown: another chain or arm of the molecule; small tags and cut ends) VH: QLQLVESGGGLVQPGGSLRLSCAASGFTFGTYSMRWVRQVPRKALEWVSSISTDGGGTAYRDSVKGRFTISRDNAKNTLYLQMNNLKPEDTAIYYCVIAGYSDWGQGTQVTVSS VL: DVVLTQTPGSLSVVPGESASISCTASQSLRHSDGRTYLYWLRQKPGQSPQRLIKRVSTRDPGVPDRFTGSGSGTDFTLKISGVRAEDAGVYYCAQGTYYPLTFGQGTKVELK ... 695

Could you now look at the following binder, please?
Check the records and state R0 for 29B03 scFv (scFv, part only; not given: scFv linker, domain order, c-myc tag, V domains shown, not shown: another chain or arm of the molecule; small tags and cut ends) VH: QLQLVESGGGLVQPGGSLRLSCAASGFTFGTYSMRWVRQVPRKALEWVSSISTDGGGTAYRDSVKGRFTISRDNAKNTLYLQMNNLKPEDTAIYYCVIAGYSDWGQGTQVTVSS VL: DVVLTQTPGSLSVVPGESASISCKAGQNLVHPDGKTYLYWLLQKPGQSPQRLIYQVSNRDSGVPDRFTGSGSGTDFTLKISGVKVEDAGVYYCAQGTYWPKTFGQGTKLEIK
930

Ref: patent US20210347865A1
